Catalogue of pKi readings, one per entry.
- system: Gamma-aminobutyric acid receptor subunit alpha-1 (Rattus norvegicus, UniProt P62813)
- Sequence (P62813 whole entry): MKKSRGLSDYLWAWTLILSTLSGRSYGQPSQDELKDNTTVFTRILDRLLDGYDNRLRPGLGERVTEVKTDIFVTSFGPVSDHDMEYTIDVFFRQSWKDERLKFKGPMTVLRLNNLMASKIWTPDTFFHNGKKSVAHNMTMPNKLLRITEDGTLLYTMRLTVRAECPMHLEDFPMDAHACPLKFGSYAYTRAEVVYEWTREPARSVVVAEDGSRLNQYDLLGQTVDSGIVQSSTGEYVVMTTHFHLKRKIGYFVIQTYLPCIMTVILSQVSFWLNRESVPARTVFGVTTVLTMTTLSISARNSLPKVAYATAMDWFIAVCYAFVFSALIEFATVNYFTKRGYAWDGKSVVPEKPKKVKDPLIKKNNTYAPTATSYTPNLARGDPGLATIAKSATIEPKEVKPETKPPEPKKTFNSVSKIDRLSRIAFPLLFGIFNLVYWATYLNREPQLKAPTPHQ
pKi: −log10 of the molar value.
endpoint_name: pKi

                                   compound  endpoint_name  assay_result
0  CN1C(=O)CN=C(c2ccccc2F)c2cc([N+](=O)[O-])ccc21            pKi          7.54
1  O=C1CN=C(c2ccccc2Cl)c2cc([N+](=O)[O-])ccc2N1            pKi          7.57
2  O=C1Nc2ccc(Cl)cc2C(c2ccccc2)=NC1O (centres undefined)            pKi          6.46
3    Cc1ncc2n1-c1ccc(Cl)cc1C(c1ccccc1F)=NC2            pKi          7.59
